Provide the recorded composite z-score for the entries that follow.
- study target: Concanavalin-A (Canavalia ensiformis)
- test method notes: ConA small-molecule binders, primary screen, artefact control for SMM control protein annotation, biochemical, small-molecule microarray, Alexa647 label, 635 nm (AID 1127);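 also: z combines 667 nm emission intensity with signal-to-noise across three replicate slides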
- details: ConA-A647 binding fluorescence, higher = more signal
Give bare numbers.

{"columns": ["molecule", "study target", "composite z-score"],
 "data": [
  ["O=C1[C@H]2[C@H]3[C@H](O)[C@H](O)CC(=NOC[C@@H](O)COCc4ccco4)[C@@H]3CC[C@H]2C(=O)N1C1CCCCC1", "Concanavalin-A (Canavalia ensiformis)", -0.421],
  ["CCOC(=O)[C@H](Cc1ccccc1)NC(=O)CCC1CC(OC(=O)NCCc2ccc(F)cc2)CC2(CCCC(COC(=O)NCc3cccc(C(F)(F)F)c3)O2)O1 (some centres undefined)", "Concanavalin-A (Canavalia ensiformis)", 1.06],
  ["CCOC(=O)[C@H](Cc1ccccc1)NC(=O)CCC1CC(OC(=O)NCc2ccc3c(c2)OCO3)CC2(CCCC(COC(=O)NCCCN3CCCC3=O)O2)O1 (some centres undefined)", "Concanavalin-A (Canavalia ensiformis)", 1.1],
  ["CCOC(=O)CCN1C(=O)[C@H]2[C@H]3[C@H](O)[C@H](O)CC(=NNC(=O)OCc4ccc(OC)cc4)[C@H]3CC[C@H]2C1=O", "Concanavalin-A (Canavalia ensiformis)", -0.0813],
  ["CO[C@H]1COC(=O)CC=C[C@H](C)[C@H](OC)COC(=O)[C@@H](C)NC(=O)CC=C[C@@H]1C", "Concanavalin-A (Canavalia ensiformis)", -0.898],
  ["O=C1C[C@@H](O)[C@@H](O)[C@@H]2[C@@H]3C(=O)N(C4CCCCC4)C(=O)[C@@H]3CC[C@@H]12", "Concanavalin-A (Canavalia ensiformis)", 0.448],
  ["COC(=O)[C@H](CCSC)NC(=O)CC=C[C@@H](C)CO", "Concanavalin-A (Canavalia ensiformis)", 0.483],
  ["CC(=O)OC[C@H]1O[C@@H](ON=C(C)CCC(=O)OC[C@H]2O[C@H](C#Cc3ccccc3)C=C[C@@H]2Oc2ccc(C)cc2)[C@H](OC(C)=O)[C@@H](OC(C)=O)[C@@H]1OC(C)=O", "Concanavalin-A (Canavalia ensiformis)", 0.943]
]}

I have 4 molecules here; please give me composite z-score for each one.
1. CC(=O)OC[C@H]1O[C@H](CC=NO[C@H](C)c2cn([C@@H]3COC[C@H]3O)nn2)C=C[C@@H]1OC(C)=O
2. C=CC[C@@H]1C=C[C@H](ON=C(C)CCN2CCCc3nc(C)c(C)cc32)[C@@H](CO)O1
3. CC(=O)OC[C@H]1O[C@H](CC=NOCC[C@@H]2C=C[C@H](OC(C)=O)[C@@H](COC(C)=O)O2)C=C[C@@H]1OC(C)=O
4. CCN1C(=O)[C@H]2[C@H]3[C@H](O)[C@H](O)CC(=NO[C@@H](C)c4cc(-c5c(C)cc(C)cc5C)no4)[C@@H]3CC[C@H]2C1=O

Result:
1: -0.152; 2: -0.12; 3: 0.304; 4: 1.02

I have 2 molecules here; please give me composite z-score for each one.
1. CC(CCN1CCCCc2nc(C)c(C)cc21)=NOC[C@@H](O)[C@H]1O[C@@H]2OC(C)(C)O[C@@H]2[C@H]1O
2. C[C@@H]1CC[C@H]2C(=O)N3[C@@H](CC[C@@H](C)[C@@H]3c3ccc(Br)cc3)C(=O)N2[C@H]1c1ccc(Br)cc1

Result:
[-0.0142, 0.344]

Measured values drawn from PubChem BioAssay for this set.
